Target: cyclophilin A (Cyp A) (Homo sapiens, UniProt P62937)
Construct: purchased Sigma C3805
Sequence (P62937 whole entry): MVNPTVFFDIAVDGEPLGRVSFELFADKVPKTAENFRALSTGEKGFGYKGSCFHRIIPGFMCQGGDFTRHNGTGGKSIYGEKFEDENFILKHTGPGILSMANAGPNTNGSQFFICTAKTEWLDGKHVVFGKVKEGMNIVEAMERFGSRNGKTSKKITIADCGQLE
Experiment: Protease-free PPIase assay, cyclophilin A
Assay type: biochemical
pKi: −log10 of the molar value. Numbered stars: 1 amine (or outer) side, 2 acyl side, 3 side chain; on linkers, the order of the positions; unused ones are H or OH. Square brackets hold non-standard residues; d marks the D form. Peptide text beside a SMILES is read from it. X21 = C[C@H](CCN(C)C1CCOCC1)[C@@H](O)[C@H](C(=O)[*:2])N(C)[*:1]; X11 = C[C@H](CCN(C)CCC#N)[C@@H](O)[C@H](C(=O)[*:2])N(C)[*:1]; X25 = CC(C)NCC[C@@H](C)[C@@H](O)[C@H](C(=O)[*:2])N(C)[*:1]; d(aThr) = C[C@@H](O)[C@@H](N)C(=O)O; NMeL = CN[C@@H](CC(C)C)C(=O)O; dNMeL = CN[C@H](CC(C)C)C(=O)O; dNMeV = CN[C@@H](C(=O)O)C(C)C; Hiv = CC(C)[C@H](O)C(=O)O; Sar = CNCC(=O)O
property-name: pKi

compound	test-value
CC(C)C[C@@H]1C(=O)N[C@H](CC(C)C)C(=O)N(C)[C@H](C(C)C)C(=O)N(C)[C@H]([C@H](O)[C@H](C)CCNC(C)C)C(=O)N[C@H]([C@@H](C)O)C(=O)N(C)CC(=O)N(C)[C@@H](CC(C)C)C(=O)N[C@H](CC(C)C)C(=O)N(C)[C@H](CC(C)C)C(=O)N[C@H](C)C(=O)O[C@@H](C(C)C)C(=O)N1C [Example 37] (cyclo([Hiv][dNMeL][dL][dNMeV][X25][d(aThr)][Sar][NMeL][dL][dNMeL][dA]))	7.00 to 7.60
CC(C)C[C@@H]1C(=O)N[C@H](CC(C)C)C(=O)N(C)[C@H](C(C)C)C(=O)N(C)[C@H]([C@H](O)[C@H](C)CCN(C)C2CCOCC2)C(=O)N[C@H]([C@@H](C)O)C(=O)N(C)CC(=O)N(C)[C@@H](CC(C)C)C(=O)N[C@H](CC(C)C)C(=O)N(C)[C@H](CC(C)C)C(=O)N[C@H](C)C(=O)O[C@@H](C(C)C)C(=O)N1C [Example 12] (cyclo([Hiv][dNMeL][dL][dNMeV][X21][d(aThr)][Sar][NMeL][dL][dNMeL][dA]))	7.00 to 7.60

Looking for the measured pKi of CC(C)C[C@@H]1C(=O)N[C@H](CC(C)C)C(=O)N(C)[C@H](C(C)C)C(=O)N(C)[C@H]([C@H](O)[C@H](C)CCN(C)CCC#N)C(=O)N[C@H]([C@@H](C)O)C(=O)N(C)CC(=O)N(C)[C@@H](CC(C)C)C(=O)N[C@H](CC(C)C)C(=O)N(C)[C@H](CC(C)C)C(=O)N[C@H](C)C(=O)O[C@@H](C(C)C)C(=O)N1C [Example 27] (cyclo([Hiv][dNMeL][dL][dNMeV][X11][d(aThr)][Sar][NMeL][dL][dNMeL][dA])) , can you help? 7.00 to 7.60
